read-out: Monocyte Chemoattractant Protein-1 (MCP1), CCL2 (gene 6347); assay: BSK_SAg_MCP1: BioMAP Diversity Plus: SAg Assay for Monocyte Chemoattractant Protein-1 (MCP1) Biomarker Activity (AID 2283090); details: primary human HUVEC with PBMC; actives raise or lower the signal
The source made the active and inactive calls. How the source made its calls: active means hit-call score of the fitted dose curve at least 0.9, where 1 is the maximum; inactive means score below 0.9.
Hi! Could you answer with just one of these? active, inactive

q: Could you kindly confirm the outcome this assay logged for `CC(=O)NC1(c2cccc(F)c2)CCN(CC[C@@]2(c3ccc(Cl)c(Cl)c3)CN(c3ccccc3)C(=O)CO2)CC1` ?
a: active

q: Could you kindly confirm the outcome this assay logged for `CC(C)(C)c1cccc(C(C)(C)C)c1O` ?
a: inactive

q: Could you kindly confirm the outcome this assay logged for `c1ccc2c(c1)ccc1ccccc12` ?
a: inactive
